Molecular target: T1, human Rh(D) antigen on Rh(D)-positive red blood cells (human, UniProt Q02161 2-417)
T1 construct: whole, on cells; also called wt; wild type Rh(D)
T1 sequence (looked up): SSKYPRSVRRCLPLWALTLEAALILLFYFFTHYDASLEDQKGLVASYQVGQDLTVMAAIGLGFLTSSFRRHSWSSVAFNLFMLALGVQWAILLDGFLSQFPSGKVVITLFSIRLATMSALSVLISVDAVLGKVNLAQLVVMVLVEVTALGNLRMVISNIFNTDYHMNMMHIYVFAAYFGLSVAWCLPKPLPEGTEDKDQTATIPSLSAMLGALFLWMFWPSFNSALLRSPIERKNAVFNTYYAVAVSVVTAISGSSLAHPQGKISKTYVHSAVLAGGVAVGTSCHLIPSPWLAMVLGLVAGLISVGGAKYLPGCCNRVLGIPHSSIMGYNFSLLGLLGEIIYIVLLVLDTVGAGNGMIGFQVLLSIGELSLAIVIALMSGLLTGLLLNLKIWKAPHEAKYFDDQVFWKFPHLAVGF
Assay: agglutination, anti-M13
observable: binding result

1. SH25 (Fab, V domains shown, Fab on M13 phage) VH: VQLLEESGGGVVQPGRSLRLACAASGFSFRSYGMHWVRQAPGRGLEWVAFTWFDGSNKYYVDSVKGRFTISRDNSKNTLYLEMNSLRVDDTAVYYCAREAPMLRGISRYYYAMDVWGPGTTVTVSS VL: AELTQSPSSLSASVGDRVTITCRASQNIRRSLNWYQQKPGKAPKLLIYAASSLQSGVPSRFSGSGSGTDFTLTISSLQPEDFATYYCQQSSNTPWTFGQGTKVEIKR = binds
2. SH20 (Fab, V domains shown, Fab on M13 phage) VH: VQLLEESGGGVVQPGRSLRLSCAASGFTFRSYAMHWVRQAPGKGLEWVAVISYDGSTIYYADSVKGRFTISRANSKNTLFLQMNSLRTEDTAVYYCTRGGFYYDSSGYYGLRHYFDYWGQGTLVTVSS VL: AELTQSPFSLSASVGDRVTITCRASQSISRSLNWYQHKPGEAPKLLIYAASSLQRGVPPRFSGSGSGTDFTLTISSLQPEDFATYFCQQSVRIPYSFGQGTKLEIKR = binds
3. SH21 (Fab, V domains shown, Fab on M13 phage) VH: EVQLLESGGGVVQPGRSLRLSCAASGFTFSTYGMHWVRQAPGKGLEWVAVIWFDGSNKEYADSVKGRFTVSRDNSKNTLYLQMNSLRAEDTAVYYCAREEVVRGVILWSRKFDYWGQGTLVTVSS VL: AELTQSPSFLSASVGDRVTITCRASQGIRSYLAWYQQKPGKAPKLLIYAASTLQSGVPSRFSGSGSGTEFTLTIASLQPDDFATYYCQQLNNYPPFTFGPGTKVDIKR = binds
